- SYSTEM UNDER TEST: CDK1 (Homo sapiens, UniProt P06493)
- Construct: purchased Carna Company
- Sequence (P06493 whole entry): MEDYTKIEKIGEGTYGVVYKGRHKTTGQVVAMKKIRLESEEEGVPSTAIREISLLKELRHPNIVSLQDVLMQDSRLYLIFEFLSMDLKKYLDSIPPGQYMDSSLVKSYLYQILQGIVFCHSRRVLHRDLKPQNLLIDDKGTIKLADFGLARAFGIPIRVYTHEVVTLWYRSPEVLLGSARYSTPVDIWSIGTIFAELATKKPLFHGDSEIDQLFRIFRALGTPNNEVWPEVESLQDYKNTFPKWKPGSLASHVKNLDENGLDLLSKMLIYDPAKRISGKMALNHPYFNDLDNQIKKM
- Sequence (P14635 whole entry partner): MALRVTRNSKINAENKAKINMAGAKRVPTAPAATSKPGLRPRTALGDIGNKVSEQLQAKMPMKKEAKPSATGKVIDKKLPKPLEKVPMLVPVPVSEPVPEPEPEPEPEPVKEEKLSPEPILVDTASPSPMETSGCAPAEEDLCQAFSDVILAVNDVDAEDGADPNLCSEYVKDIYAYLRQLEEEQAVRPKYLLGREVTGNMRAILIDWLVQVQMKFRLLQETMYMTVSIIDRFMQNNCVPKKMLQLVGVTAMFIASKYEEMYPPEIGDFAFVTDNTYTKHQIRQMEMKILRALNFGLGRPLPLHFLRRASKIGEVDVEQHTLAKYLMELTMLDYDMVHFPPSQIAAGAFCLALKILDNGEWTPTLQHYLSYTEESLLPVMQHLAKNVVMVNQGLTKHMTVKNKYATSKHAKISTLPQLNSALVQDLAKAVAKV
- ASSAY DETAILS: CDK enzymology experiment in vitro, capillary mobility shift assay (MSA)
- Assay type: biochemical
- RECORDED CONDITIONS: read-out: CDK1 (nM) inhibitory IC50
Below, each entry is listed with its recorded IC50.

Consider the worked cases shown below.
N#Cc1cnc(NC2CCN(S(=O)(=O)c3ccc(C4=CCNCC4)cc3)CC2)nc1NC1CCCC1	10 to 50 nM
O=S(=O)(c1ccc(N2CCNC(C(F)(F)F)C2)cc1)N1CCC(Nc2ncc(C(F)(F)F)c(O[C@H]3CCOC3)n2)CC1 (stereo partly drawn)	2.5 to 10 nM
Cn1cc(-c2ccc(S(=O)(=O)N3CCC(Nc4ncc(C#N)c(N[C@H]5CCOC5)n4)CC3)cc2)cn1	10 to 50 nM
O=S(=O)(c1ccc([C@H]2CCCNC2)cc1)N1CCC(Nc2ncc(C(F)(F)F)c(O[C@H]3CCOC3)n2)CC1 (single isomer, unassigned)	2.5 to 10 nM
O=S(=O)(c1ccc(N2CC3(CNC3)C2)cc1)N1CCC(Nc2ncc(C(F)(F)F)c(O[C@H]3CCOC3)n2)CC1	2.5 to 10 nM

Below: the item to evaluate.
// query Can you look up the measured IC50 of "Cn1cc(S(=O)(=O)N2CCC(Nc3ncc(C(F)(F)F)c(NC4CCCC4)n3)CC2)cn1" for me?
// result 10 to 50 nM
